Attribution: paper PMC4965013

dTDP for assorted molecules
- Tested on: P. falciparum 3D7 trophozoites
- method.notes: Metabolomic fingerprint profiling LC-MS
- Type: cell-based, Plasmodium falciparum
- condition.set: S2 Table Metabolomics; metabolite dTDP

The examples below pair each entry with its known result.
CSC1=NC(=Nc2c(C)cccc2C)C2(CCC(C(C)(C)C)CC2)N1c1ccc(Cl)cc1 (centres unmarked) [MMV666596] | -0.6033
CC1CCN(Cc2ccc(NC(=O)c3cc4ccc5cccnc5c4[nH]3)cc2)CC1 [MMV020549] | 0.3381
COc1ccc(NC(=O)C2c3ccccc3C(=O)N(CC(C)C)C2c2cccs2)cc1Cl (centres unmarked) [MMV000642] | 1.699
COc1ccc(Br)cc1C1Nc2ccc3ccccc3c2C2=C1C(=O)CC(c1ccccc1)C2 (centres unmarked) [MMV020885] | -0.08159

Below: the item to evaluate.
-- ask Under P. falciparum 3D7 trophozoites: dTDP value of Cc1cc(Nc2ccc(Cl)cc2)n2nc(C(F)(F)F)nc2n1 [MMV011256] ?
-- reply -0.9712

====

- Test system: P. falciparum 3D7 trophozoites
- method.notes: Metabolomic fingerprint profiling LC-MS
- Type: cell-based, Plasmodium falciparum
- Parameters: unit not given here
- condition.set: metabolite ADP-D-glucose, S2 Table Metabolomics
Here, each record is paired with measured ADP-D-glucose data.
# respond with the number and nothing more

COc1ccc(C(C)=O)cc1N1C(=O)C2C(C1=O)C1(c3ccccc3)C(=O)C2(c2ccccc2)C(c2ccc(C)cc2)=C1c1ccc(C)cc1 (stereo not drawn) [MMV007695] | 0.2728
COc1ccc(Br)cc1C1Nc2ccc3ccccc3c2C2=C1C(=O)CC(c1ccccc1)C2 (stereo not drawn) [MMV020885] | 0.1062
Cc1ccc(-c2cc3c(SCC(=O)Nc4cc(C(F)(F)F)ccc4Cl)nccn3n2)cc1 [MMV396680] | -0.2217
CCCCCC(=O)N1c2ccccc2N=C2CC(c3ccc(OC)c(OC)c3)CC(O)=C2C1c1ccc(C(F)(F)F)cc1 (stereo not drawn) [MMV085583] | -0.0158

-- ask What reported ADP-D-glucose corresponds to Fc1ccc2[nH]c3c(NCCCN4CCOCC4)ncnc3c2c1 [MMV019871] on P. falciparum 3D7 trophozoites?
-- reply -0.2501

-- ask Kindly state the measured ADP-D-glucose obtained for CCCCCCOC(=O)C1=C(C)NC(=O)NC1c1ccccc1F (stereo not drawn) [MMV007686] with P. falciparum 3D7 trophozoites.
-- reply 0.08489

-- ask Request body: readout ADP-D-glucose, system P. falciparum 3D7 trophozoites, query CC(C)(C)c1ccc(O)c(CNC2CCCCC2)c1 [MMV665785] . Return the value.
-- reply -0.1351

-- ask Hello, I am looking for reported ADP-D-glucose with P. falciparum 3D7 trophozoites for COc1cccc(C=Cc2nc(=O)c3ccccc3o2)c1OC [MMV666693] . Could you help?
-- reply 0.3504

====

- Test system: P. falciparum 3D7 trophozoites
- method.notes: Metabolomic fingerprint profiling LC-MS
- Type: cell-based, Plasmodium falciparum
- condition.set: metabolite citrate/isocitrate; S2 Table Metabolomics, change in metabolite level after compound treatment
Record 1.0 whenever citrate/isocitrate is at -0.7 or higher; record 0.0 when lower.

COc1ccc(C(=O)Nc2nonc2-c2ccc(OC)c(OC)c2)cc1Cl [MMV011567] | 1.0
COc1ccc(-c2c(C)nn3c(N)c(C#N)cnc23)cc1OC [MMV396797] | 0.0
OC(CNC1CCCCC1)Cn1c2ccccc2c2ccccc21 (stereo not shown) [MMV009063] | 1.0
CCCc1c(CC)c(=N)c2ccccc2n1C [MMV008416] | 0.0
CN(C)c1ccc(C(O)(c2ccc(N(C)C)cc2)c2ccc(N(C)C)cc2)cc1 [MMV665941] | 1.0

Here's the next entry for you.
-- ask Quick check: does Cc1ccc(Nc2nc(NCCO)c3ccccc3n2)cc1C [MMV001038] have citrate/isocitrate greater than or equal to -0.7?
-- reply 0.0

====

- Test system: P. falciparum 3D7 trophozoites
- method.notes: Metabolomic fingerprint profiling LC-MS
- Assay type: cell-based, Plasmodium falciparum
- condition.set: metabolite ATP, S2 Table Metabolomics
property.label: ATP
Hey, just send me the number, nothing else.

Sample answers from the record:
Cc1cc(Nc2ccc(C)c(Cl)c2)n2nc(C(F)(F)F)nc2n1 [MMV665874] | 0.1462
COc1cccc(NC(=O)[C@H](C(C)C)n2c(=O)[nH]c3ccccc3c2=O)c1 [MMV665878] | -2.891
c1ccc(Cn2c(N=Nc3c(Nc4ccccc4)ccc4ccccc34)nc3ccccc32)cc1 [MMV666023] | -0.2499
CN(C)c1ccc(C=Cc2nc(=O)c3ccccc3o2)cc1 [MMV006309] | 0.2918
Cc1cc(C=C2SC(=Nc3ccccc3)N(C3CCCC3)C2=O)c(C)n1-c1ccc(Cl)cc1 [MMV666688] | -0.1967

-- ask Given Fc1ccc2[nH]c3c(NCCCN4CCOCC4)ncnc3c2c1 [MMV019871] , state its recorded ATP.
-- reply -0.2422

-- ask Field request: ATP | item: COc1ccc(-c2nc3cc(Cc4ccc5[nH]c(-c6ccc(OC)cc6)nc5c4)ccc3[nH]2)cc1 [MMV007384]
-- reply -0.4674

====

The reader will find reported fumarate values listed item by item below.
- Test system: P. falciparum 3D7 trophozoites
- method.notes: Metabolomic fingerprint profiling LC-MS
- Format: cell-based, Plasmodium falciparum
- condition.set: metabolite fumarate; S2 Table Metabolomics, change in metabolite level after compound treatment
Answer using only a numeral; do not append any unit.

CCCc1c(CC)c(=N)c2ccccc2n1C | -0.39
c1ccc2cc3c(Nc4ccc(N5CCOCC5)cc4)ccnc3cc2c1 | -0.1611
COc1ccc(NC(=O)C2c3ccccc3C(=O)N(CC(C)C)C2c2cccs2)cc1Cl (centres unmarked) | -0.3143
CN(C)c1ccc(C(O)(c2ccc(N(C)C)cc2)c2ccc(N(C)C)cc2)cc1 | -0.9732

-- ask Give its fumarate value. Item: CCCc1cc(O)c2c3c(c(=O)oc2c1)CN(C)CC3
-- reply -0.991

====

- Tested on: P. falciparum 3D7 trophozoites
- method.notes: Metabolomic fingerprint profiling LC-MS
- Type: cell-based, Plasmodium falciparum
- condition.set: S2 Table Metabolomics; peptide PD
Label y when PD >= -0.06; otherwise n.

Here are 3 molecules together with their reported answers.
CCOC(=O)c1c(C)n(-c2ccc(Cl)cc2)c2ccc(OC(=O)C=Cc3ccccc3)cc12 | y
C[n+]1c2ccccc2nc2ccc(NCCO)cc21 | y
Cc1cccc(Nc2nc(N)c3ccccc3n2)c1 | n

-- ask Is it the case that CCOC(=O)c1cn(CC)c2cc(N(C)CCc3ccc(OC)c(OC)c3)c(F)cc2c1=O has PD reaching or exceeding -0.06?
-- reply y

-- ask Identify whether the reported PD of the following molecule is -0.06 or greater: Cc1ccc(-c2cc3nc4c(c(O)n3n2)CCCC4)cc1
-- reply y

-- ask Dear colleague, could you confirm whether CCN1CCN(Cc2ccc(NC(=O)c3cc4ccc5cccnc5c4[nH]3)cc2)CC1 has PD at or above -0.06?
-- reply n

-- ask Could you please find out whether Cc1ccc(Nc2nc(-c3ccccn3)cs2)cc1 has PD that meets -0.06 or exceeds it?
-- reply n

-- ask Has Cc1ccc(-c2cc3c(SCC(=O)Nc4cc(C(F)(F)F)ccc4Cl)nccn3n2)cc1 a recorded PD greater than or equal to -0.06?
-- reply y

-- ask Answer whether PD of Cc1cc(C=C2SC(=Nc3ccccc3)N(C3CCCC3)C2=O)c(C)n1-c1ccc(Cl)cc1 is greater than or equal to -0.06.
-- reply y

====

- Tested on: P. falciparum 3D7 trophozoites
- method.notes: Metabolomic fingerprint profiling LC-MS
- Format: cell-based, Plasmodium falciparum
- condition.set: S2 Table Metabolomics; metabolite dTMP
hey, just use TRUE if measured dTMP is less than 0.2, otherwise FALSE

CCOc1cc2c(cc1OCC)C(c1cc(OC)c(O)cc1Cl)NCC2 (centres unmarked) [MMV008956] | FALSE

-- ask dTMP under 0.2? Item: Cc1ccc(-c2cc3c(SCC(=O)Nc4cc(C(F)(F)F)ccc4Cl)nccn3n2)cc1 [MMV396680]
-- reply TRUE

-- ask Just wondering, is dTMP of CCN(CC)CCNc1ncnc2c1[nH]c1ccc(Cl)cc12 [MMV396703] below 0.2?
-- reply FALSE

-- ask Does this compound meet the criterion dTMP < 0.2? CCOc1ccc(-c2nonc2NC(=O)c2cccc(C)c2)cc1OCC [MMV665805]
-- reply TRUE

-- ask Confirm or reject: dTMP of CN(C)c1ccc(C(O)(c2ccc(N(C)C)cc2)c2ccc(N(C)C)cc2)cc1 [MMV665941] lies strictly below 0.2
-- reply TRUE

-- ask For this compound, is dTMP lower than 0.2? Cc1cc(Nc2ccc3ccccc3c2)n2ncnc2n1 [MMV011099]
-- reply TRUE
